Value source: patent US20250154138A1

- ASSAYED_SYSTEM: human IL-17A / human IL-17RA (Homo sapiens (Human), UniProt Q16552)
- Sequence (Q16552 24-155): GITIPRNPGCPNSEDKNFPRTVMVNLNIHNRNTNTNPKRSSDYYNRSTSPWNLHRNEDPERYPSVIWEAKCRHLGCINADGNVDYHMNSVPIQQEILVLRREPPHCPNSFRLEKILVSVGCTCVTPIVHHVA
- ASSAY_METHOD_TEXT: Human IL-17A biochemical assay (HTRF, blocking of IL-17A binding to IL-17RA)
- MEASUREMENT_CONTEXT: 0.4 nM IL-17A, 0.3 nM IL-17RA, max compound concentration 10 uM
Kindly state pIC50 for each of the entries shown.
Answers are plain numbers, as −log10 of the molar value.

Here are 6 compounds together with their reported answers.
In [3]: df
Out[3]:
                                   compound  measurement
0  CC1CN(Cc2cc3cc(NC(=O)[C@@H](NC(=O)c4ccnn4C)C4CCCCC4)ccc3o2)C(=O)N1 (stereo partly drawn)         5.77
1  CC[C@@H]1CN(C2(C(=O)NC)Cc3ccc(NC(=O)[C@@H](NC(=O)c4ccnn4C)C4CCCCC4)cc3C2)C(=O)N1 (stereo partly drawn)         7.22
2  Cc1nonc1C(=O)N[C@H](C(=O)Nc1ccc2c(c1)CC(C(=O)NC1CCCC1)(N1C[C@@H](C(C)C)NC1=O)C2)C(C1CC1)C1CC1 (stereo partly drawn)         7.47
3  Cc1nonc1C(=O)N[C@H](C(=O)Nc1ccc2c(c1)OC(CN1C[C@@H](C(F)(F)F)NC1=O)C2)C1CCC(F)(F)CC1 (stereo partly drawn)         6.03
4  CC1CN(CC2Cc3ccc(NC(=O)[C@@H](NC(=O)c4ccnn4C)C4CCCCC4)cc3O2)C(=O)N1 (stereo partly drawn)         5.62
5  CC1CN(C2(C(N)=O)Cc3ccc(NC(=O)[C@@H](NC(=O)c4ccnn4C)C4CCCCC4)cc3C2)C(=O)N1 (stereo partly drawn)         6.26

For each listed entry, give its pIC50.
1. CNC(=O)C1(N2CC(Cc3ccc(Cl)cc3)NC2=O)Cc2ccc(NC(=O)[C@@H](NC(=O)c3ccnn3C)C3CCCCC3)cc2C1 (stereo partly drawn)
2. CNC(=O)C1(N2C[C@@H](C(C)C)NC2=O)Cc2ccc(NC(=O)[C@H](Cc3ccc(Cl)cc3)NC(=O)c3ccnn3C)cc2C1 (stereo partly drawn)
3. CNC(=O)C1(N2CC(C)NC2=O)Cc2cc3nc([C@@H](NC(=O)c4ccnn4C)C4CCCCC4)[nH]c3cc2C1 (stereo partly drawn)

Result:
1. 7.49
2. 6.39
3. 6.39

----------
Give measured IC50 for each item. Keep answers brief.
- ASSAYED_SYSTEM: human IL-17A / human IL-17RA (Homo sapiens (Human))
- ASSAY_METHOD_TEXT: Human IL-17A biochemical assay (HTRF, blocking of IL-17A binding to IL-17RA)
- MEASUREMENT_CONTEXT: 0.4 nM IL-17A, 0.3 nM IL-17RA, max compound concentration 10 uM
Answer shape: numeric part, then the unit.

Reference set, count: 3
COMPOUND	ASSAYED_SYSTEM	IC50
Cn1nccc1C(=O)N[C@H](C(=O)Nc1ccc2c(c1)CC(C(=O)O)(N1CC3(CC3)CNC1=O)C2)C1CCCCC1 (stereo partly drawn)	human IL-17A / human IL-17RA (Homo sapiens (Human))	15.3 nM
CNC(=O)C1(N2C[C@@H](C(C)C)NC2=O)Cc2ccc(NC(=O)[C@@H](NC(=O)c3nonc3C)C(C3CC3)C3CC3)cc2C1 (stereo partly drawn)	human IL-17A / human IL-17RA (Homo sapiens (Human))	126 nM
CNC(=O)C1(N2CC3(CC3)CNC2=O)Cc2ccc(NC(=O)C(NC(=O)c3ccnn3C)C3CCC(C(C)C)CC3)cc2C1 (stereo not drawn)	human IL-17A / human IL-17RA (Homo sapiens (Human))	10 nM

Working through the 6 compounds below one at a time, give IC50 for each.
1. Cc1ccc(NC(=O)C2(N3CC4(CC4)CNC3=O)Cc3ccc(NC(=O)[C@@H](NC(=O)c4nonc4C)C4CCC(F)(F)CC4)cc3C2)cc1 (stereo partly drawn)
2. CNC(=O)C1(N2CC(C(C)COC)NC2=O)Cc2ccc(NC(=O)[C@@H](NC(=O)c3ccnn3C)C3CCCCC3)cc2C1 (stereo partly drawn)
3. CNC(=O)C1(N2C[C@@H](Cc3ccc(OC)cc3)NC2=O)Cc2ccc(NC(=O)[C@@H](NC(=O)c3ccnn3C)C3CCCCC3)cc2C1 (stereo partly drawn)
4. CC(C)[C@@H]1CN(C2(C(=O)NCc3ccccn3)Cc3ccc(NC(=O)[C@@H](NC(=O)c4ccnn4C)C4CCCCC4)cc3C2)C(=O)N1 (stereo partly drawn)
5. Cc1nonc1C(=O)N[C@H](C(=O)Nc1ccc2c(c1)CC(C(=O)Nc1ccccc1C(F)(F)F)(N1C[C@@H](C(C)C)NC1=O)C2)C(C1CC1)C1CC1 (stereo partly drawn)
6. Cc1nonc1C(=O)N[C@H](C(=O)Nc1ccc2c(c1)CC(C(=O)Nc1cc(Cl)cc(Cl)c1)(N1C[C@@H](C(C)C)NC1=O)C2)C(C1CC1)C1CC1 (stereo partly drawn)

Result:
47.8 nM
293 nM
20 nM
19 nM
295 nM
8070 nM

----------
- ASSAYED_SYSTEM: human IL-17A / human IL-17RA (Homo sapiens (Human), UniProt Q16552)
- ASSAY_METHOD_TEXT: Human IL-17A biochemical assay (HTRF, blocking of IL-17A binding to IL-17RA)
- MEASUREMENT_CONTEXT: 0.4 nM IL-17A, 0.3 nM IL-17RA, max compound concentration 10 uM
- Method: Compounds disclosed herein were tested for blocking of human IL-17A (Cat: C774, novoprotein) protein with its receptor human IL-17RA (Cat: C153, novoprotein) in an assay based on Homogeneous Time Resolved Fluorescence. […] The HTRF signals (ex337 nm, em620 nm/665 nm) were read on BMG PHERAstar FSX instrument. […]
We label by threshold. Values of IC50 strictly beneath 100 nM are y. Values of 100 nM and up are n.

Here are 10 molecules together with their reported answers.
MOLECULE	LABEL_VALUE
CNC(=O)C1(N2C[C@@H](C(C)C)NC2=O)Cc2ccc(NC(=O)[C@@H](NC(=O)c3ccnn3C)C(C3CC3)C3CC3)cc2C1 (stereo partly shown) [Example 90]	y
CNC(=O)C1(N2CC3(CC3)CNC2=O)Cc2cc3nc([C@@H](NC(=O)c4ccnn4C)C4CCCCC4)[nH]c3cc2C1 [Example 137]	n
CNC(=O)C1(N2C[C@@H](C(C)C)NC2=O)Cc2ccc(NC(=O)C(NC(=O)c3ccnn3C)C3CCc4ccc(Cl)cc4C3)cc2C1 (stereo partly shown) [Example 196]	y
CNC(=O)C1(N2CC(C(C)C)NC2=O)Cc2cc3nc([C@@H](NC(=O)c4nonc4C)C4CCCCC4)[nH]c3cc2C1 (stereo partly shown) [Example 29]	n
CNC(=O)C1Cc2ccc(NC(=O)[C@@H](NC(=O)c3ccnn3C)C3CCCCC3)cc2C1 (stereo partly shown) [Example 4]	n
COCC1(N2CC3(CC3)CNC2=O)Cc2ccc(NC(=O)[C@@H](NC(=O)c3ccnn3C(C)C)C(C3CC3)C3CC3)cc2C1 (stereo partly shown) [Example 160]	n
CNC(=O)C1(N2C[C@@H](C(C)C)NC2=O)Cc2ccc(NC(=O)[C@@H](NC(=O)c3cccc(Oc4c(C)n[nH]c4C)c3)C3CCCCC3)cc2C1 (stereo partly shown) [Example 149]	y
Cc1nonc1C(=O)NC(C(=O)Nc1ccc2c(c1)CC(N1C[C@@H](C(F)(F)F)NC1=O)C2)C1Cc2ccc(Cl)cc2C2(CC2)C1 (stereo partly shown) [Example 227]	n
Cc1nonc1C(=O)N[C@H](C(=O)Nc1ccc2c(c1)CC(CN1C[C@@H](C(F)(F)F)NC1=O)O2)C(C1CC1)C1CC1 (stereo partly shown) [Example 293]	n
CNC(=O)C1(N2C[C@@H](C(C)C)NC2=O)Cc2ccc(NC(=O)[C@@H](NC(=O)c3ccnn3C(C)C)C(C3CC3)C3CC3)cc2C1 (stereo partly shown) [Example 91]	y

Task: Threshold test, IC50 < 100 nM: Cc1nonc1C(=O)N[C@H](C(=O)Nc1ccc2c(c1)CC(N1C[C@@H](C(C)C)NC1=O)C2)C(C1CC1)C1CC1 (stereo partly shown) [Example 231]
Result: n

Task: # TODO verify IC50 < 100 nM strictly for this molecule: CNC(=O)C1(N2CC3(CC3)CNC2=O)Cc2ccc(NC(=O)C(NC(=O)c3ccnn3C)C3CCC(CC(F)(F)F)CC3)cc2C1 (stereo not shown) [Example 168]
Result: y

----------
- ASSAYED_SYSTEM: human IL-17A / human IL-17RA (Homo sapiens (Human), UniProt Q16552)
- ASSAY_METHOD_TEXT: Human IL-17A biochemical assay (HTRF, blocking of IL-17A binding to IL-17RA)
- MEASUREMENT_CONTEXT: 0.4 nM IL-17A, 0.3 nM IL-17RA, max compound concentration 10 uM
Exercise: state measured pIC50 for each of the compounds provided.
Give bare numbers, as −log10 of the molar value.

>>> print(df.to_string())
                                   compound  outcome_measure  measurement
0  CNC(=O)C1(N2CC(C(F)(F)F)NC2=O)Cc2ccc(NC(=O)[C@@H](NC(=O)c3ccnn3C)C3CCCCC3)cc2C1 (stereo partly drawn)            pIC50         6.46

Each compound below has a recorded value; state its pIC50.
1. CNC(=O)C1(N2C[C@@H](CCc3ccccc3)NC2=O)Cc2ccc(NC(=O)[C@@H](NC(=O)c3ccnn3C)C3CCCCC3)cc2C1 (stereo partly drawn)
2. Cc1ccccc1NC(=O)C1(N2CC3(CC3)CNC2=O)Cc2ccc(NC(=O)[C@@H](NC(=O)c3nonc3C)C3CCC(F)(F)CC3)cc2C1 (stereo partly drawn)
3. CC(C1Cc2ccc(NC(=O)[C@@H](NC(=O)c3ccnn3C(C)C)C(C3CC3)C3CC3)cc2O1)N1C[C@@H](C(F)(F)F)NC1=O (stereo partly drawn)

Result:
5.64
7.43
6.25

List the reported pIC50 of each compound below.
1. CC[C@H]1CC[C@H]([C@H](NC(=O)c2ccnn2C)C(=O)Nc2ccc3c(c2)CC(C(=O)NC)(N2CC4(CC4)CNC2=O)C3)CC1 (stereo partly drawn)
2. CC1CN(Cc2cc3cc(NC(=O)[C@@H](NC(=O)c4ccnn4C)C4CCCCC4)ccc3[nH]2)C(=O)N1 (stereo partly drawn)
3. CNC(=O)C1(N2C[C@@H](Cc3ccc(F)cc3)NC2=O)Cc2ccc(NC(=O)[C@@H](NC(=O)c3ccnn3C)C3CCCCC3)cc2C1 (stereo partly drawn)
4. Cc1nonc1C(=O)N[C@H](C(=O)Nc1ccc2c(c1)CC(C(O)C(F)(F)F)(N1CC(C(F)(F)F)NC1=O)C2)C(C1CC1)C1CC1 (stereo partly drawn)
5. CNC(=O)C1(N2CC3(CC3)CNC2=O)Cc2ccc(NC(=O)[C@@H](NC(=O)c3ccc(C#N)n3C)C3CCCCC3)cc2C1 (stereo partly drawn)
6. Cc1nonc1C(=O)N[C@H](C(=O)Nc1ccc2c(c1)CC(C(=O)Nc1cccc(Cl)c1)(N1C[C@@H](C(C)C)NC1=O)C2)C(C1CC1)C1CC1 (stereo partly drawn)

Result:
1. 8.15
2. 4.89
3. 7.05
4. 6.70
5. 8.26
6. 5.99

Provide pIC50 values for the following items, in order.
1. Cn1nccc1C(=O)N[C@H](C(=O)Nc1ccc2oc(CN3C[C@@H](C(F)(F)F)NC3=O)cc2c1)C1CCCCC1
2. CNC(=O)C1(N2C[C@@H](C(C)C)NC2=O)CCc2cc3[nH]c([C@@H](NC(=O)c4ccnn4C)C4CCCCC4)nc3cc2C1 (stereo partly drawn)

Result:
[6.70, 6.36]
